assay: mRNA encapsulation efficiency of lipid nanoparticles (RiboGreen assay); format: physicochemical; details: hEPO mRNA LNP, Process A, Cationic Lipid:DMG-PEG2000:Cholesterol:DOPE 40:1.5:28.5:30 mol %, N/P 4
// values below are reported Encapsulation efficiency (EE) %
The reply should be a number in %, with the unit left off.

Answered examples (5):
Value of measured Encapsulation efficiency (EE) % for the entry CCCCCCCCCCC(O)CN(CCCCC(=O)O[C@@H]1CO[C@H]2[C@@H]1OC[C@@H]2OC(=O)CCCN(CC(O)CCCCCCCCCC)CC(O)CCCCCCCCCC)CC(O)CCCCCCCCCC (stereo partly drawn) [Compound 25] : 96

Value of measured Encapsulation efficiency (EE) % for the entry CCCCCCCCCCCOC(=O)CCCC(O)CN(CCCC(=O)O[C@@H]1CO[C@H]2[C@@H]1OC[C@@H]2OC(=O)CCCN(CC(O)CCCCCCCCCC)CC(O)CCCCCCCCCC)CC(O)CCCCCC(=O)OC(CCCCCCCC)CCCCCCCC (stereo in doubt) [Compound 32] : 94

Value of measured Encapsulation efficiency (EE) % for the entry CCCCCCCCCCC(O)CN(CCCC(=O)O[C@@H]1CO[C@H]2[C@@H]1OC[C@H]2OC(=O)CCCN(CC(O)CCCCCC(=O)OC(CCCCCCCC)CCCCCCCC)CC1CCCC(=O)O1)CC(O)CCCCCCCCCC (stereo partly drawn) [Compound 19] : 74

Value of measured Encapsulation efficiency (EE) % for the entry CCCCCCCCCCCCC(O)CN(CCCC(=O)N[C@H]1CO[C@H]2[C@@H]1OC[C@@H]2NC(=O)CCCN(CC(O)CCCCCCCCCCCC)CC(O)CCCCCCCCCCCC)CC(O)CCCCCCCCCCCC (stereo partly drawn) [Compound 55] : 99

Value of measured Encapsulation efficiency (EE) % for the entry CCCCCCCCC(O)CN(CCCC(=O)N[C@H]1CO[C@H]2[C@@H]1OC[C@@H]2NC(=O)CCCN(CC(O)CCCCCCCC)CC(O)CCCCCCCC)CC(O)CCCCCCCC (stereo partly drawn) [Compound 51] : 81

More entries:
Value of measured Encapsulation efficiency (EE) % for the entry CCCCCCCCCCCCC(O)CN(CCCOC(=O)N[C@H]1CO[C@H]2[C@@H]1OC[C@@H]2NC(=O)OCCCN(CC(O)CCCCCCCCCCCC)CC(O)CCCCCCCCCCCC)CC(O)CCCCCCCCCCCC (stereo partly drawn) [Compound 53] : 96

Value of measured Encapsulation efficiency (EE) % for the entry CCCCCCCCCCC(O)CN(CCCOC(=O)O[C@H]1CO[C@H]2[C@@H]1OC[C@H]2OC(=O)OCCCN(CC(O)CCCCCCCCCC)CC(O)CCCCCCCCCC)CC(O)CCCCCCCCCC (stereo partly drawn) [Compound 40] : 66

Value of measured Encapsulation efficiency (EE) % for the entry CCCCCCCCCCCCC(O)CN(CCCOC(=O)O[C@@H]1CO[C@H]2[C@@H]1OC[C@H]2OC(=O)OCCCN(CC(O)CCCCCCCCCCCC)CC(O)CCCCCCCCCCCC)CC(O)CCCCCCCCCCCC (stereo partly drawn) [Compound 37] : 95

Value of measured Encapsulation efficiency (EE) % for the entry CCCCCC/C=C\COC(=O)CCCCCC(O)CN(CCCC(=O)O[C@H]1CO[C@H]2[C@@H]1OC[C@H]2OC(=O)CCCN(CC(O)CCCCCC(=O)OC/C=C\CCCCCC)CC(O)CCCCCC(=O)OC/C=C\CCCCCC)CC(O)CCCCCC(=O)OC/C=C\CCCCCC (stereo partly drawn) [Compound 35] : 82
